Data origin, for the record: patent US11242351B2

target: BCL6 BTB domain (biotin-thrombin-BCL6 amino acids 1-129) (Homo sapiens (Human))
# pKd values compiled below
Please note pKd is a logarithmic value: minus log10 of concentration in mol/L. Answer with that number alone.

Use the examples below as a reference point.
CCOCCN1CCN(c2cc(NC(=O)Cn3cc(-c4cc(C(N)=O)c(O)c(OC)c4OC)c4c(=O)n5c(nc43)CCC5)c(Cl)c(F)n2)[C@@H](C)C1 [I-71] | 6.74
C[C@H]1COCCN1c1cc(NC(=O)Cn2cc(-c3cc(C(N)=O)c(O)c(F)c3F)c3c(=O)n4c(nc32)CCCCC4)c(Cl)c(F)n1 [I-51] | 7.05
C[C@H]1CN(C2COC2)CCN1c1cc(NC(=O)Cn2cc(-c3cc(C(N)=O)c(O)c(F)c3F)c3c(=O)n4c(nc32)COCC4)c(Cl)c(F)n1 [I-34] | 8.14

Problem: Find pKd (BCL6 BTB domain (biotin-thrombin-BCL6 amino acids 1-129) (Homo sapiens (Human))) for the entry C[C@H]1CN(C2COC2)CCN1c1cc(NC(=O)Cn2cc(-c3cc(C(N)=O)c(O)c(F)c3F)c3c(=O)n4c(nc32)CCCC4)c(Cl)c(F)n1 [I-44]
Solution: 7.60

Problem: What reported pKd corresponds to C[C@H]1COCCN1c1cc(NC(=O)Cn2cc(-c3cc(C(N)=O)c(O)c(Cl)c3F)c3c(=O)n4c(nc32)CCC4)c(Cl)c(F)n1 [I-11] on BCL6 BTB domain (biotin-thrombin-BCL6 amino acids 1-129) (Homo sapiens (Human))?
Solution: 6.95

Problem: Query for BCL6 BTB domain (biotin-thrombin-BCL6 amino acids 1-129) (Homo sapiens (Human)): what pKd does the record show for C[C@H]1CN(C)CCN1c1cc(NC(=O)Cn2cc(-c3cc(C(N)=O)c(O)c(F)c3F)c3c(=O)n4c(nc32)CC(C)(C)C4)c(Cl)c(F)n1 [I-57] ?
Solution: 7.95
